As shown below, each of these compounds has a reported log10 C50 value.
Assay: Displacement of ethidium from poly[d(A-T)]-poly[d(A-T)] DNA by fluorimetric method
Values below are the log10 of the recorded C50, with µM as the unit.

smiles_input=C[n+]1ccc(Nc2ccc(NC(=O)/C=C/c3ccc(C(=O)Nc4ccc(Nc5cc[n+](C)cc5)cc4)cc3)cc2)cc1.Cc1ccc(S(=O)(=O)[O-])cc1.Cc1ccc(S(=O)(=O)[O-])cc1 experimental_value=-0.85
smiles_input=C[n+]1cccc(NC(=O)c2ccc(NC(=O)c3ccc(C(=O)Nc4ccc(C(=O)Nc5ccc[n+](C)c5)cc4)c4ccccc34)cc2)c1.Cc1ccc(S(=O)(=O)[O-])cc1.Cc1ccc(S(=O)(=O)[O-])cc1 experimental_value=0.04
smiles_input=C[n+]1cccc(NC(=O)c2ccc(NC(=O)c3ccc(C(=O)Nc4ccc[n+](C)c4)cc3)cc2)c1.Cc1ccc(S(=O)(=O)[O-])cc1.Cc1ccc(S(=O)(=O)[O-])cc1 experimental_value=0.89
smiles_input=C[n+]1ccc(Nc2ccc(NC(=O)c3ccc(Nc4cc[n+](C)c5ccccc45)cc3N)cc2N)cc1.[I-].[I-] experimental_value=-0.10

From here, focus on the item given below.
State the recorded log10 C50 for this entry: `C[n+]1cccc(NC(=O)c2ccc(NC(=O)c3cccc(C(=O)Nc4ccc(C(=O)Nc5ccc[n+](C)c5)cc4)c3)cc2)c1.Cc1ccc(S(=O)(=O)[O-])cc1.Cc1ccc(S(=O)(=O)[O-])cc1` 0.08

----------
As shown below, each of these compounds has a reported C50 value.
Organism: Bos taurus
Test: Displacement of ethidium from calf thymus DNA by fluorimetric method
I'd appreciate it if you included the unit after the number.

smiles_input=C[n+]1ccc(Nc2ccc(C(=O)Nc3ccc(Nc4c5ccccc5[n+](C)c5cc(N)ccc45)cc3)cc2)cc1.[Cl-].[Cl-] result_type=C50 experimental_value="0.11 µM"
smiles_input=COc1cc(N)cc2c(Nc3ccc(NC(=O)c4ccc(Nc5cc[n+](C)cc5)cc4)cc3)cc[n+](C)c12.Cc1ccc(S(=O)(=O)[O-])cc1.Cc1ccc(S(=O)(=O)[O-])cc1 result_type=C50 experimental_value="0.31 µM"
smiles_input=Cc1cc(Nc2ccc(NC(=O)c3ccc(C(=O)Nc4ccc(C(=O)Nc5ccc[n+](C)c5)cc4)cc3)cc2)nc(N)n1.I.[I-] result_type=C50 experimental_value="0.39 µM"
smiles_input=C[n+]1ccc(-c2ccc(-c3ccc(-c4ccc(NC(=O)c5ccc(C(=O)Nc6ccc(-c7ccc(-c8ccc(-c9cc[n+](C)cc9)cc8)cc7)cc6)cc5)cc4)cc3)cc2)cc1.Cc1ccc(S(=O)(=O)[O-])cc1.Cc1ccc(S(=O)(=O)[O-])cc1 result_type=C50 experimental_value="0.55 µM"
smiles_input=C[n+]1cccc(NC(=O)c2ccc(NC(=O)c3ccc(C(=O)Nc4ccc(C(=O)Nc5ccc[n+](C)c5)c(N)c4)cc3N)cc2)c1.Cc1ccc(S(=O)(=O)[O-])cc1.Cc1ccc(S(=O)(=O)[O-])cc1 result_type=C50 experimental_value="0.39 µM"

State the recorded C50 for this entry: `C[n+]1cc(-c2ccc(NC(=O)/C=C/c3ccc(C(=O)Nc4ccc(-c5c[n+](C)c(N)nc5N)cc4)cc3)cc2)c(N)nc1N.Cc1ccc(S(=O)(=O)[O-])cc1.Cc1ccc(S(=O)(=O)[O-])cc1` 0.4 µM

State the recorded C50 for this entry: `COc1cc(C(=O)Nc2ccc[n+](C)c2)ccc1NC(=O)c1ccc(C(=O)Nc2ccc(C(=O)Nc3ccc[n+](C)c3)cc2OC)cc1.Cc1ccc(S(=O)(=O)[O-])cc1.Cc1ccc(S(=O)(=O)[O-])cc1` 0.84 µM

State the recorded C50 for this entry: `C[n+]1ccc(Nc2ccc(NC(=O)/C=C/c3ccc(/C=C/C(=O)Nc4ccc(Nc5cc[n+](C)cc5)cc4)cc3)cc2)cc1.Cc1ccc(S(=O)(=O)[O-])cc1.Cc1ccc(S(=O)(=O)[O-])cc1` 0.31 µM

State the recorded C50 for this entry: `Cc1ccc(S(=O)(=O)[O-])cc1.Cc1ccc(S(=O)(=O)[O-])cc1.Cc1ccc2c(c1)c(Nc1ccc(C(=O)Nc3ccc(Nc4cc[n+](C)cc4)cc3)cc1)cc[n+]2C` 1.05 µM

State the recorded C50 for this entry: `C[n+]1ccc(Nc2ccc(NC(=O)c3ccc(Nc4cc[n+](C)c5ccc(N)cc45)cc3N)cc2)cc1.[I-].[I-]` 0.49 µM

State the recorded C50 for this entry: `C[n+]1ccc(Nc2ccc(NC(=O)c3ccc(-c4ccc(Nc5cc[n+](C)cc5)cc4)cc3)cc2)cc1.[I-].[I-]` 2.04 µM

State the recorded C50 for this entry: `C[n+]1ccc(Nc2ccc(/C=C/c3ccc(Nc4cc[n+](C)c5ccccc45)cc3)cc2)cc1.[Br-].[Br-]` 0.34 µM
